Reference source: the NIST ThermoML archive (doi:10.1016/j.jct.2014.03.001)

test: mn = molality of the nth substance listed, in mol/kg; settings: 293.15 K; 84.51 kPa; Liquid; Vibrating tube method; m1 = 0.035
readout: mass density (kg/m3)

{"compound": "Cl.N [ammonium chloride (NH4Cl)] + O", "measured number": 998.814}
{"compound": "O=C([O-])CC(O)(CC(=O)[O-])C(=O)[O-].[Na+].[Na+].[Na+] [trisodium citrate] + O", "measured number": 1004.75}
{"compound": "O=C([O-])[O-].[Na+].[Na+] [sodium carbonate] + O", "measured number": 1002.09}
{"compound": "[Cl-].[Na+] [sodium chloride] + O", "measured number": 999.636}
{"compound": "C[N+](C)(C)C.[Cl-] [tetramethylammonium chloride] + O", "measured number": 998.29}
